# assay-system: MDR1 (P-gp) (Homo sapiens (Human), UniProt P08183)
# Sequence (P08183 whole entry): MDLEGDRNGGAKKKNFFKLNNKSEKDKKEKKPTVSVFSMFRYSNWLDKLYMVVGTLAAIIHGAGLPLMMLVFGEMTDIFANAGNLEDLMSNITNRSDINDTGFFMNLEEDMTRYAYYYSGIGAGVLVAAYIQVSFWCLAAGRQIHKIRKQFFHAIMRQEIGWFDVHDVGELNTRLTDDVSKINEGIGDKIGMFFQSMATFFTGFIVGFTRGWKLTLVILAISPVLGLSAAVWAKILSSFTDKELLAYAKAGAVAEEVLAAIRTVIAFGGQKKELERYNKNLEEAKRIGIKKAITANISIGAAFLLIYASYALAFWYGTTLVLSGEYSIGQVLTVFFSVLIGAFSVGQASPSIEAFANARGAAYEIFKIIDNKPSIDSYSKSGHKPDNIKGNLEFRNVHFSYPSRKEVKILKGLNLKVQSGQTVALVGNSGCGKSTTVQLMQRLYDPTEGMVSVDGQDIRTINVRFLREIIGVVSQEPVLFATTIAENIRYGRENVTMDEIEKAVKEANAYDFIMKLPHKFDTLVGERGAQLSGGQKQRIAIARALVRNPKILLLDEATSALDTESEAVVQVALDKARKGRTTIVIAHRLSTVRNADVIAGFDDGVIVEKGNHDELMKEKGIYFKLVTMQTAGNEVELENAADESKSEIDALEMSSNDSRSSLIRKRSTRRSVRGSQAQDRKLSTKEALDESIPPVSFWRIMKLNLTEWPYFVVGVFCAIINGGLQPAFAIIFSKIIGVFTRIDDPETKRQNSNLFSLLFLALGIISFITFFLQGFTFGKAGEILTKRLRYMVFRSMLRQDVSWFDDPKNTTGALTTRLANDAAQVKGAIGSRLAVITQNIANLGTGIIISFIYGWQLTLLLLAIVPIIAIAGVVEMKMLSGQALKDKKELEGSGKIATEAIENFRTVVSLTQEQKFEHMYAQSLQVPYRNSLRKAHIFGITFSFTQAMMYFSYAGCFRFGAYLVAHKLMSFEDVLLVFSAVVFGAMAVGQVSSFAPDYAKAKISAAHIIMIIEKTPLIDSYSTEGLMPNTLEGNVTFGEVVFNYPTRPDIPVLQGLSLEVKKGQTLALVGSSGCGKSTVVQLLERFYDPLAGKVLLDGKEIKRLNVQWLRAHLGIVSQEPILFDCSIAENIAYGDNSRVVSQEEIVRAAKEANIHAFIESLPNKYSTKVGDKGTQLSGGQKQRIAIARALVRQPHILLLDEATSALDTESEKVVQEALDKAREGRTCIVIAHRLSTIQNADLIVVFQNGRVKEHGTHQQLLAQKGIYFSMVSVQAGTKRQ
# method-notes: MDR1 transfected MDCKII canine Mdr1 knockout permeability/efflux, Assay 7
# study-conditions: dog, MDCK-MDR1
measurement-kind: efflux ratio at 2 h, 1 μM
Enter a number only.

# input Given the entry CNc1ncc2ncnc(Nc3ccc(Oc4ccc5c(c4)ncn5C)c(C)c3)c2n1 [Example 4] , report its measured efflux ratio at 2 h, 1 μM.
# output 1.4

# input Would you mind doing CN(c1ncc2ncnc(Nc3ccc(Oc4ccn5ncnc5c4)c(Cl)c3)c2n1)[C@H]1CCCOC1 [Example 360] as well?
# output 1.3

# input Same question for Cc1cc(Nc2ncnc3cnc(N4CC5CC5(O)C4)nc23)ccc1Oc1ccc2c(c1)ncn2C (stereo not shown) [Example 158] please.
# output 1.9

# input What about this compound? CSc1ncc2ncnc(Nc3ccc(Oc4ccc5c(c4)ncn5C)c(C)c3)c2n1 [Example 1]
# output 1.4

---

# assay-system: ErbB2 insYVMA (HER2-YVMA, SEQ ID NO: 2) (Homo sapiens, UniProt P04626, INS775YVMA/P1170A)
# Sequence (P04626 with tags, fused parts or gaps INS775YVMA/P1170A limits assumed): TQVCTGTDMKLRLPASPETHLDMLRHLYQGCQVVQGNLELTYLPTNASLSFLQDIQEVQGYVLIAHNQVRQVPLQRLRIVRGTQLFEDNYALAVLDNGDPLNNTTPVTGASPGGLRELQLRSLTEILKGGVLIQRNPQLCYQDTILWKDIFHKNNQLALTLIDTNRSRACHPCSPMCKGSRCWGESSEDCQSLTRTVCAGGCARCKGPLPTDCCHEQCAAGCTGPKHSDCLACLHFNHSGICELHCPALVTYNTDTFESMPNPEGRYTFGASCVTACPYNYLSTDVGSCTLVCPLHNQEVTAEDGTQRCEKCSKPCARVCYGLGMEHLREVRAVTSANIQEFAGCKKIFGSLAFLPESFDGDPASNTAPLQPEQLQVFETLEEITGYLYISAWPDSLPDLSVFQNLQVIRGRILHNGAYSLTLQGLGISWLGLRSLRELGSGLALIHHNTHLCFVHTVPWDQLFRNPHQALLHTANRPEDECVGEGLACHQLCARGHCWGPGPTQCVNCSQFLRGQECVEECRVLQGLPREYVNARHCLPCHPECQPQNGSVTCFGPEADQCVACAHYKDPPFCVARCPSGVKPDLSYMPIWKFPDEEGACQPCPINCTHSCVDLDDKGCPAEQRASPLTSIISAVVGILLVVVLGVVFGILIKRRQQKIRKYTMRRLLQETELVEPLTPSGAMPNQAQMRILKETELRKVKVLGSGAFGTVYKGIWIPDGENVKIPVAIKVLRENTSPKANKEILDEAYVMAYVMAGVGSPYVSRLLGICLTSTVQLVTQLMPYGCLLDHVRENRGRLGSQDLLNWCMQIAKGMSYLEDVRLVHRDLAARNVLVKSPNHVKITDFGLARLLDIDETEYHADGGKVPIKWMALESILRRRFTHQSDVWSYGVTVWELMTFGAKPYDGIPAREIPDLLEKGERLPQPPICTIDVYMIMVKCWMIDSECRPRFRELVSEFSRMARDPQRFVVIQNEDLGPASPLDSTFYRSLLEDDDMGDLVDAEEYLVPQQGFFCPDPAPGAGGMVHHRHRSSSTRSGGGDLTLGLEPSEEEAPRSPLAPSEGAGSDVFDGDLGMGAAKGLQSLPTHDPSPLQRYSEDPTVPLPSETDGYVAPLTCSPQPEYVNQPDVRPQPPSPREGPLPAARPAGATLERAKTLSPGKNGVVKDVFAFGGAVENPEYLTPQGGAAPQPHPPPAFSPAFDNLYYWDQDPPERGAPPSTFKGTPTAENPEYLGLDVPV
# method-notes: biochemical
# study-conditions: ErbB2 insYVMA enzyme assay; read-out: Assay 1 IC50
measurement-kind: IC50 (nM)
State the answer as a number, implicitly in nM.

# input I'd like to know its IC50. The molecule in question is Cc1cc(Nc2ncnc3cnc(N(C)[C@H]4C[C@H](O)C4)nc23)ccc1Oc1ccn2ncnc2c1
# output 8.3

# input What do we get for Cc1cc(Nc2ncnc3cnc(N4C[C@@H]5C[C@H]4C[C@@H]5O)nc23)ccc1Oc1ccc2c(c1)ncn2C ?
# output 38.3

# input Do the same for Cc1cc(Nc2ncnc3cnc(N4CCO[C@H]5C[C@H]54)nc23)ccc1Oc1ccc2c(c1)ncn2C (single isomer, unassigned) [Example 60a] please
# output 18.4

# input Could you do the same for Clc1cc(Nc2ncnc3cnc(N4CCC4)nc23)ccc1Oc1ccn2ncnc2c1 , please?
# output 18.7

# input Subsequent entry: Cc1cc(Nc2ncnc3cnc(N4CC[C@]45CCOC5)nc23)ccc1Oc1ccn2ncnc2c1
# output 14.3

# input Also, Cn1cnc2cc(Oc3ccc(Nc4ncnc5cnc(N6C[C@@H]7C[C@H]6C[C@H]7O)nc45)cc3Cl)ccc21 please.
# output 24.7

# input Next up: Cc1cc(Nc2ncnc3cnc(NCc4cnn(C)c4C)nc23)ccc1Oc1ccc2c(c1)ncn2C
# output 20.3

---

Below are IC50 values recorded for UniProt:P00533.
Sequence (P00533 25-1210): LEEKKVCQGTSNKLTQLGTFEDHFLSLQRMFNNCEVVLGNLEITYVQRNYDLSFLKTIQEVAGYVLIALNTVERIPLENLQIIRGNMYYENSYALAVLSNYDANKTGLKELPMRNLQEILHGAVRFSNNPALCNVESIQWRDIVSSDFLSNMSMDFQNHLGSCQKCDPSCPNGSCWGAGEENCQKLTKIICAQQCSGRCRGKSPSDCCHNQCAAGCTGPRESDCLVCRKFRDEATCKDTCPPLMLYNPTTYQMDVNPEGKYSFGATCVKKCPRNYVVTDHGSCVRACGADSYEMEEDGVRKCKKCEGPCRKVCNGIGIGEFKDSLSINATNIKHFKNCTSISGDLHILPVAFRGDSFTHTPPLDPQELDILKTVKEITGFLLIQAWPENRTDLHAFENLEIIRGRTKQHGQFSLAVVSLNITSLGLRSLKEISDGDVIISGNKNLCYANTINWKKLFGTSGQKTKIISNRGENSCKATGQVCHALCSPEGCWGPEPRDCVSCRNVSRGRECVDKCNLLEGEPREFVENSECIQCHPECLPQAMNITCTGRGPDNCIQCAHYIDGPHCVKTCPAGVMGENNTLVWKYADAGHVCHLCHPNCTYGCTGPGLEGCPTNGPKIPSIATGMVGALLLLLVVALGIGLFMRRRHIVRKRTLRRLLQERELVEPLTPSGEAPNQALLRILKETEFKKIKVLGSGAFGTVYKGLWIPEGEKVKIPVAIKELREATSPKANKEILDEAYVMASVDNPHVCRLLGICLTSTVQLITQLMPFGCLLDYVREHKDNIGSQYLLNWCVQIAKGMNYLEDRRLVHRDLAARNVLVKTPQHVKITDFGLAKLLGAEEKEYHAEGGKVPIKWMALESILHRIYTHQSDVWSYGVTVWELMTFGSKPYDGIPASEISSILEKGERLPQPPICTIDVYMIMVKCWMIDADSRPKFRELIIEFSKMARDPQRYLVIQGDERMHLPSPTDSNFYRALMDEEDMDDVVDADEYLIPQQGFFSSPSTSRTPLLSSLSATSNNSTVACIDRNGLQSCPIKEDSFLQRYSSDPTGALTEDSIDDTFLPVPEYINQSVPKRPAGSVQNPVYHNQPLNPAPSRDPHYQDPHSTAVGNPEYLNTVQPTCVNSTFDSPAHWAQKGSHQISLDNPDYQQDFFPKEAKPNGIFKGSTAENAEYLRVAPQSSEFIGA

# input I would be grateful if you could share the reported IC50 for Cc1cc(Nc2ncnc3cnc(N4CCC[C@H]4C(F)(F)F)nc23)ccc1Oc1ccc2c(c1)ncn2C .
# output ≥ 10 µM

# input Now give it for Cc1cc(Nc2ncnc3cnc(N4CC[C@@H](C#N)C4)nc23)ccc1Oc1ccc2c(c1)ncn2C too.
# output ≥ 10 µM

# input Let us now turn to Cc1cc(Nc2ncnc3cnc(N4CC[C@@H](S(C)(=O)=O)C4)nc23)ccc1Oc1ccc2c(c1)ncn2C
# output ≥ 10 µM

# input Another: Cc1cc(Nc2ncnc3cnc(N(C)[C@H]4C[C@@H](O)C4)nc23)ccc1Oc1ccc2c(c1)ncn2C
# output 1.05 µM

# input Entry to check: Cc1cc(Nc2ncnc3cnc(N4CC5CC(C4)N5C)nc23)ccc1Oc1ccc2c(c1)ncn2C
# output ≥ 10 µM

# input Could you do the same for Clc1cc(Nc2ncnc3cnc(N4CC5CCC(C4)O5)nc23)ccc1Oc1ccn2ncnc2c1 , please?
# output ≥ 10 µM

# input What do we get for Clc1cc(Nc2ncnc3cnc(N4C5CCC4COC5)nc23)ccc1Oc1ccn2ncnc2c1 ?
# output ≥ 10 µM

# input Entry to check: CO[C@@H]1CN(c2ncc3ncnc(Nc4ccc(Oc5ccc6c(c5)ncn6C)c(C)c4)c3n2)C[C@H]1O (racemic)
# output ≥ 10 µM

# input Next entry: Cc1cc(Nc2ncnc3cnc(N4CC[C@H](C#N)C4)nc23)ccc1Oc1ccc2c(c1)ncn2C
# output ≥ 10 µM

# input Follow-up item: Cc1cc(Nc2ncnc3cnc(N(C)[C@H]4CN(C)C[C@H]4F)nc23)ccc1Oc1ccc2c(c1)ncn2C
# output 6.47 µM

# input What would you report for Cc1cc(Nc2ncnc3cnc(N4CCN[C@H](C(F)(F)F)C4)nc23)ccc1Oc1ccc2c(c1)ncn2C ?
# output 8.92 µM

---

# assay-system: ErbB2 with Exon 20 YVMA insertion (HER2-YVMA) (Homo sapiens (Human), UniProt P04626, INS775YVMA)
# Sequence (P04626 other isoform, or with tags, fused parts or gaps ins YVMA behind 775): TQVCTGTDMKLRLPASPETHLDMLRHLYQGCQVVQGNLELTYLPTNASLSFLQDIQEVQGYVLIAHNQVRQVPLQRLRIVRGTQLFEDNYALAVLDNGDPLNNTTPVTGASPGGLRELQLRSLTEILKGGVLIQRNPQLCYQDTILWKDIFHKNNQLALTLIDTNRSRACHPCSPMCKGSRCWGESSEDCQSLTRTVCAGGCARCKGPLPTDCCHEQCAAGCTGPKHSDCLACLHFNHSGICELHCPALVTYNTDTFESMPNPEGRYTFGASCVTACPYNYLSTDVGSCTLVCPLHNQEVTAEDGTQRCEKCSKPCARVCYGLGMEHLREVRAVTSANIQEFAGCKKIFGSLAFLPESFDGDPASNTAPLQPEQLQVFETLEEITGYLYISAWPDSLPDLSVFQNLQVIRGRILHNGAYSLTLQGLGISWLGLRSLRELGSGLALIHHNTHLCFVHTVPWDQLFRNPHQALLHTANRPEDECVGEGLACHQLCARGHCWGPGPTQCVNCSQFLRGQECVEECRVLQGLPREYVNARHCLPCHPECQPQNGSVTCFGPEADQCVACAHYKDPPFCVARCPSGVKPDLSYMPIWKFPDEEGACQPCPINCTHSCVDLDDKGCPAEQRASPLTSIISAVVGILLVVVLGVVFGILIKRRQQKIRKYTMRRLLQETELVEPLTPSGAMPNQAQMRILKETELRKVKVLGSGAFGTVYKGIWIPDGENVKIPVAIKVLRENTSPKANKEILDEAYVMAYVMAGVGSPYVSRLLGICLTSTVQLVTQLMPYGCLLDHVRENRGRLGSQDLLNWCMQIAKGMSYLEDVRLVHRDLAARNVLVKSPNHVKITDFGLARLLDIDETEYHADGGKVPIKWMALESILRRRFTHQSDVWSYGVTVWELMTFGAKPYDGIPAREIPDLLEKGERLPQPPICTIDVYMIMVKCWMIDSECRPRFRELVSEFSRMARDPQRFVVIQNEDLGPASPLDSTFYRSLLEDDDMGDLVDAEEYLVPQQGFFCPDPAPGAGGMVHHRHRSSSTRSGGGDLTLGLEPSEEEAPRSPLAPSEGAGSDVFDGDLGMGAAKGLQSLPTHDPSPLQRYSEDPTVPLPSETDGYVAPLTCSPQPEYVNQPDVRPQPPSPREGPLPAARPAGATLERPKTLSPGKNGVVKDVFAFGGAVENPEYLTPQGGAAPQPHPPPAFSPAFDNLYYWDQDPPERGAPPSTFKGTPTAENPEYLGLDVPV
# method-notes: Cellular phosphorylation assay, constitutive ErbB2 phosphorylation (Y1196) in engineered NIH 3T3 cells, Assay 4
# note: boundary value 40 nM maps to not met; IC50 below it maps to met

# input Identify whether the molecule Cc1cc(Nc2ncnc3cnc(N4C[C@@H]5[C@H](C4)[C@@H]4CC[C@H]5O4)nc23)ccc1Oc1ccc2c(c1)ncn2C [Example 363] records IC50 below 40 nM.
# output met

# input Note, next up: Cc1cc(Nc2ncnc3cnc(N4CCC(C)(C#N)C4)nc23)ccc1Oc1ccc2c(c1)ncn2C (stereo not shown) [Example 475]
# output not met

# input Follow-up entry: Cc1cc(Nc2ncnc3cnc(N4CCOC5CC54)nc23)ccc1Oc1ccc2c(c1)ncn2C (racemic) [Example 60]
# output met

# input Try COCCOC1CN(c2ncc3ncnc(Nc4ccc(Oc5ccc6c(c5)ncn6C)c(C)c4)c3n2)C1 [Example 240] next.
# output not met

# input Try this molecule too: Cc1cc(Nc2ncnc3cnc(N[C@@H]4CCNC[C@@H]4F)nc23)ccc1Oc1ccc2c(c1)ncn2C [Example 83]
# output met

# input Field entry: Cc1cc(Nc2ncnc3cnc(N(C)[C@H]4C[C@@H](C(C)(C)O)C4)nc23)ccc1Oc1ccc2c(c1)ncn2C [Example 467]
# output met

# input Lookup Cc1cc(Nc2ncnc3cnc(N4C[C@@H](C)[C@H](O)C4)nc23)ccc1Oc1ccc2c(c1)ncn2C [Example 167]
# output met

# input Can you handle Cc1cc(Nc2ncnc3cnc(N4CCC45COC5)nc23)ccc1Oc1ccn2ncnc2c1 [Example 369] next?
# output not met

# input Note, next up: Cc1cc(Nc2ncnc3cnc(N4CC[C@H]4C(C)(C)O)nc23)ccc1Oc1ccc2c(c1)ncn2C [Example 407]
# output not met

# input Subsequent entry: C[C@@H]1CN(c2ncc3ncnc(Nc4ccc(Oc5ccc6c(c5)ncn6C)c(Cl)c4)c3n2)CCN1C [Example 439]
# output not met

# input Cc1cc(Nc2ncnc3cnc(N(C)C[C@@H](C)O)nc23)ccc1Oc1ccc2c(c1)ncn2C [Example 189] ?
# output met

# input Can you check Cc1cc(Nc2ncnc3cnc(N[C@@H](C)COC(F)(F)F)nc23)ccc1Oc1ccc2c(c1)ncn2C [Example 63] next?
# output not met

# input Please answer likewise for CN(CCC(C)(C)O)c1ncc2ncnc(Nc3ccc(Oc4ccc5c(c4)ncn5C)c(Cl)c3)c2n1 [Example 479]
# output met

# input Same lookup for Cc1cc(Nc2ncnc3cnc(N4CC5CC(C4)O5)nc23)ccc1Oc1ccc2c(c1)ncn2C.O=C(O)C(F)(F)F [Example 69, 2,2,2-trifluoroacetate] , please.
# output met

# input Input Cc1cc(Nc2ncnc3cnc(N4CCOCC4)nc23)ccc1Oc1ccc2c(c1)ncn2C1CC1 [Example 73, 2,2,2-trifluoroacetate]
# output not met

# input Also need Cc1cc(Nc2ncnc3cnc(N4CC5(CCO5)C4)nc23)ccc1Oc1ccc2c(c1)ncn2C [Example 282] , thanks.
# output met

# input Next: Cc1cc(Nc2ncnc3cnc(N4CCC(O)(C(F)F)CC4)nc23)ccc1Oc1ccc2c(c1)ncn2C [Example 168]
# output met

# input Further, for CON1CCN(c2ncc3ncnc(Nc4cc(C)c(Oc5ccc6c(c5)ncn6C)cc4F)c3n2)CC1 [Example 486] ?
# output not met

---

# assay-system: ErbB2 insYVMA (HER2-YVMA, SEQ ID NO: 2) (Homo sapiens, UniProt P04626, INS775YVMA/P1170A)
# method-notes: biochemical
# study-conditions: ErbB2 insYVMA enzyme assay; read-out: Assay 1 IC50
measurement-kind: IC50 (nM)
Give the value, in units of nM, as a plain number.

# input Any idea what IC50 was measured for Cc1cc(Nc2ncnc3cnc(N4C[C@@H]5COC[C@@H]54)nc23)ccc1Oc1ccc2c(c1)ncn2C ?
# output 40.1

# input Entry CNc1ncc2ncnc(Nc3ccc(Oc4ccc5scnc5c4)c(C)c3)c2n1 [Example 50, 2,2,2-trifluoroacetate] please
# output 4.8

# input // same read-out, input: CN(c1ncc2ncnc(Nc3ccc(Oc4ccn5ncnc5c4)c(Cl)c3)c2n1)[C@H]1CCCOC1
# output 24.9

# input Moving on to Cc1cc(Nc2ncnc3cnc(N4CCC[C@H]4C(C)(C)O)nc23)ccc1Oc1ccc2c(c1)ncn2C
# output 32.6

# input What would you report for Clc1cc(Nc2ncnc3cnc(N4C[C@H]5CC[C@@H]4CO5)nc23)ccc1Oc1ccn2ncnc2c1 ?
# output 16.7

# input Cc1cc(Nc2ncnc3cnc(N(C)C4COC4)nc23)ccc1Oc1ccn2ncnc2c1 ?
# output 16.7

# input Try this compound next: Cc1cc(Nc2ncnc3cnc(N4CC[C@H]4C(F)F)nc23)ccc1Oc1ccn2ncnc2c1
# output 24.8

# input Similarly, Cc1cc(Nc2ncnc3cnc(O[C@H]4CCNC[C@H]4F)nc23)ccc1Oc1ccc2c(c1)ncn2C ?
# output 75.6

# input And what about the compound Clc1cc(Nc2ncnc3cnc(N4CC5CCC(C4)O5)nc23)ccc1Oc1ccn2ncnc2c1 ?
# output 56.3

# input And the next one, Cc1cc(Nc2ncnc3cnc(S(C)(=O)=O)nc23)ccc1Oc1ccc2c(C)onc2c1 ?
# output 9.8

# input For Cc1cc(Nc2ncnc3cnc(-c4ccccn4)nc23)ccc1Oc1ccc2c(c1)ncn2C then?
# output 127

# input Now the same for Cc1cc(Nc2ncnc3cnc(-c4cccnc4)nc23)ccc1Oc1ccc2c(c1)ncn2C
# output 27.5
